Recorded Predicted Max. Bioavailability (% F) values for a group of compounds are listed next.
- EXPERIMENT_NOTES: Stability of compounds in human liver microsomes
- Type: in vitro ADME
- RECORDED_CONDITIONS: predicted from HLM data, human

Check out these entries, answers already filled in.
COMPOUND_SMILES	READOUT_NAME	EXPERIMENTAL_VALUE
COc1cc2c(cc1OCc1cccc(C#N)n1)CCN1C[C@@H](CC(C)(C)C)[C@H](O)C[C@H]21	Predicted Max. Bioavailability (% F)	71 % F
COc1cc2c(cc1OCC1(F)COCCOC1)CCN1C[C@@H](CC(C)(C)C)[C@H](O)C[C@H]21	Predicted Max. Bioavailability (% F)	56 % F
CC[C@H](O)COc1cc2c(cc1OC)[C@H]1C[C@@H](O)[C@H](CC(C)(C)C)CN1CC2	Predicted Max. Bioavailability (% F)	76 % F
COc1cc2c(cc1OCc1cccc(C#N)c1)CCN1C[C@@H](CC(C)(C)C)[C@H](O)C[C@H]21	Predicted Max. Bioavailability (% F)	48 % F
COc1cc2c(cc1OCc1ccon1)CCN1C[C@@H](CC(C)(C)C)[C@H](O)C[C@H]21	Predicted Max. Bioavailability (% F)	56 % F

Find the measured Predicted Max. Bioavailability (% F) of COc1cc2c(cc1OCC13CC(C(F)(F)F)(C1)C3)CCN1C[C@@H](CC(C)(C)C)[C@H](O)C[C@H]21 and report it.
≥87 % F

Find the measured Predicted Max. Bioavailability (% F) of COc1cc2c(cc1OCC1CC1)CCN1C[C@@H](CC(C)(C)C)[C@H](O)C[C@H]21 and report it.
42 % F
